# Tested on: NCI-H358
# PROTOCOL DESCRIPTION: relative viability (nuclei count vs DMSO), 5 days (fraction); higher = more cells survive
# CONDITIONS: first compound 0.8 µM
Ranges used to classify relative viability: LOW (below 0.4), MID (0.4 to below 0.5), HIGH (0.5 or more)

>>> label_value("O=c1[nH]c2ccccc2n1C1CCN(CCCC(c2ccc(F)cc2)c2ccc(F)cc2)CC1 [Pimozide] + N=C(N)NC(=N)NCCc1ccccc1 [Phenformin] (partner 250 µM)")
"LOW"
>>> label_value("O=c1[nH]c2ccccc2n1C1CCN(CCCC(c2ccc(F)cc2)c2ccc(F)cc2)CC1 [Pimozide] + O=C(CCCCCCC(=O)Nc1ccccc1)NO [Vorinostat] (partner 1 µM)")
"HIGH"
>>> label_value("Cc1cnc(-c2cnc(NCCNc3ccc(C#N)cn3)nc2-c2ccc(Cl)cc2Cl)[nH]1 + NC(=O)Nc1cc(-c2cccc(F)c2)sc1C(=O)N[C@H]1CCCNC1 [AZD7762] (partner 0.2 µM)")
"MID"
>>> label_value("Cc1cnc(-c2cnc(NCCNc3ccc(C#N)cn3)nc2-c2ccc(Cl)cc2Cl)[nH]1 + CCNC(=O)c1noc(-c2cc(C(C)C)c(O)cc2O)c1-c1ccc(CN2CCOCC2)cc1 [Luminespib] (partner 0.01 µM)")
"LOW"
>>> label_value("Cc1cnc(-c2cnc(NCCNc3ccc(C#N)cn3)nc2-c2ccc(Cl)cc2Cl)[nH]1 + CC(=O)Nc1cccc(-n2c(=O)n(C3CC3)c(=O)c3c(Nc4ccc(I)cc4F)n(C)c(=O)c(C)c32)c1 [Trametinib] (partner 0.02 µM)")
"LOW"
>>> label_value("O=c1[nH]c2ccccc2n1C1CCN(CCCC(c2ccc(F)cc2)c2ccc(F)cc2)CC1 [Pimozide] + CS(=O)(=O)CCNCc1ccc(-c2ccc3ncnc(Nc4ccc(OCc5cccc(F)c5)c(Cl)c4)c3c2)o1 [Lapatinib] (partner 2 µM)")
"MID"
>>> label_value("Cc1cnc(-c2cnc(NCCNc3ccc(C#N)cn3)nc2-c2ccc(Cl)cc2Cl)[nH]1 + COc1cccc2cc(-c3nc([C@H]4CC[C@H](C(=O)O)CC4)n4ncnc(N)c34)[nH]c12 [OSI-027] (partner 0.5 µM)")
"HIGH"
>>> label_value("O=c1[nH]c2ccccc2n1C1CCN(CCCC(c2ccc(F)cc2)c2ccc(F)cc2)CC1 [Pimozide] + C[C@]1(O)C[C@@H](c2nc(-c3ccc4ccc(-c5ccccc5)nc4c3)c3c(N)nccn32)C1 [Linsitinib] (partner 1 µM)")
"HIGH"
>>> label_value("O=c1[nH]c2ccccc2n1C1CCN(CCCC(c2ccc(F)cc2)c2ccc(F)cc2)CC1 [Pimozide] + CC(=O)c1c(C)c2cnc(Nc3ccc(N4CCNCC4)cn3)nc2n(C2CCCC2)c1=O [Palbociclib] (partner 0.5 µM)")
"LOW"
